System Tested: HiBit-KRAS^G12C (Homo sapiens, UniProt P01116, G12C)
Sequence (P01116 1-186 isoform P01116-2 G12C limits assumed): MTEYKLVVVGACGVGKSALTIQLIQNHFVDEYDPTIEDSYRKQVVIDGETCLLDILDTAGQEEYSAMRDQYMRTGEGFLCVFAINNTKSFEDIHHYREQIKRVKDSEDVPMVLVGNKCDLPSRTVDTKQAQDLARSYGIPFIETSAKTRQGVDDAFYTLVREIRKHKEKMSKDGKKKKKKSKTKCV
Run Description: HiBit degradation assay in MiaPaCa-2 HiBit-KRas^G12C cells
Assay type: cell-based
Experimental Parameters: read-out: KRas^G12C-HiBiT (MiaPaCa; 0.5% DMSO) IC50; MiaPaCa-2 HiBit-KRas^G12C cells; 0.5% DMSO; 24 hours
Recorded DC50 values for a group of compounds are listed next.

Compound: C=CC(=O)N1CCN(c2nc(OCCN3CCC(CN(C)c4cc([C@H](C(=O)N5C[C@H](O)C[C@H]5C(=O)N[C@@H](C)c5ccc(-c6scnc6C)cc5)C(C)C)on4)CC3)nc3c(F)c(-c4cc(O)cc5ccccc45)c(Cl)cc23)C[C@@H]1CC#N
DC50: 100 to 1000 nM
--
Compound: C=CC(=O)N1CCN(c2nc(OCCN3CCC(COc4cc([C@H](C(=O)N5C[C@@H](O)C[C@H]5C(=O)N[C@@H](C)c5ccc(-c6scnc6C)cc5)C(C)C)on4)CC3)nc3c(F)c(-c4cc(O)cc5ccccc45)c(Cl)cc23)C[C@@H]1CC#N (atropisomer, axis not shown)
DC50: < 100 nM
--
Compound: C=CC(=O)N1CCN(c2nc(OCCN3CCC(COCC(=O)N[C@H](C(=O)N4C[C@H](O)C[C@H]4C(=O)N[C@@H](C)c4ccc(-c5scnc5C)cc4)C(C)(C)C)CC3)nc3c(F)c(-c4c(C)ccc5[nH]ncc45)c(Cl)cc23)C[C@@H]1CC#N
DC50: 100 to 1000 nM

----------
Entries and their Dmax values follow.
System Tested: HiBit-KRAS^G12C (Homo sapiens, UniProt P01116, G12C)
Run Description: HiBit degradation assay in SW1573 HiBit-KRas^G12C cells
Type: cell-based
Set-up: expressed in transfected cells; host or cells: SW1573 (clone E6), modified pcDNA3.1 vector, TK promoter
Experimental Parameters: SW1573, SW1573 HiBit-KRas^G12C, 0.5% DMSO, 24 hours; read-out: KRas^G12C-HiBiT (SW1573; 0.5% DMSO) Dmax**
Outcome Measure: Dmax

Molecule: C=CC(=O)N1CCN(c2nc(O[C@H](C)CN3CCC(COCC(=O)N[C@H](C(=O)N4C[C@H](O)C[C@H]4C(=O)N[C@@H](C)c4ccc(-c5scnc5C)cc4)C(C)(C)C)CC3)nc3c(F)c(-c4cc(O)cc5ccccc45)c(Cl)cc23)CC1 [Compound 65]
Reported Result: > 70%
--
Molecule: C=CC(=O)N1CCN(c2nc(OCCN3CCC(F)(COc4cc([C@H](C(=O)N5C[C@H](O)C[C@H]5C(=O)N[C@@H](C)c5ccc(-c6scnc6C)cc5)C(C)C)on4)CC3)nc3c(F)c(-c4cc(O)cc5ccccc45)c(Cl)cc23)C[C@@H]1CC#N [Compound 133]
Reported Result: > 70%
--
Molecule: C=CC(=O)N1CCN(c2nc(OCCN3CCC(COCC(=O)N[C@H](C(=O)N4C[C@H](O)C[C@H]4C(=O)N[C@@H](C)c4ccc(-c5scnc5C)cc4)C(C)(C)C)CC3)nc3c(F)c(-c4nc(NC)cc(C)c4C(F)(F)F)c(Cl)cc23)C[C@@H]1CC#N [Compound 98]
Reported Result: > 70%
--
Molecule: C=CC(=O)N1CCN(c2nc(OCCN3CCC(OCCOCC(=O)N[C@H](C(=O)N4C[C@H](O)C[C@H]4C(=O)N[C@@H](C)c4ccc(-c5scnc5C)cc4)C(C)(C)C)CC3)nc3c(F)c(-c4cc(O)cc5ccccc45)c(Cl)cc23)CC1 [Compound 66]
Reported Result: 35 to 70%
--
Molecule: C=CC(=O)N1CCN(c2nc(OCCN3CCC(C)(COCC(=O)N[C@H](C(=O)N4C[C@H](O)C[C@H]4C(=O)N[C@@H](C)c4ccc(-c5scnc5C)cc4)C(C)(C)C)CC3)nc3c(F)c(-c4cc(O)cc5ccccc45)c(Cl)cc23)C[C@@H]1CC#N [Compound 149]
Reported Result: > 70%
--
Molecule: Cc1ncsc1-c1ccc([C@H](C)NC(=O)[C@@H]2C[C@@H](O)CN2C(=O)[C@@H](NC(=O)COCC2CCN(CCOc3nc(N4CCN(C(=O)/C=C/CN(C)C)[C@@H](CC#N)C4)c4cc(Cl)c(-c5cc(O)cc6ccccc56)c(F)c4n3)CC2)C(C)(C)C)cc1 [Compound 165]
Reported Result: 35 to 70%
--
Molecule: C=C(F)C(=O)N1CCN(c2nc(OCCN3CCC(F)(COc4cc([C@H](C(=O)N5C[C@H](O)C[C@H]5C(=O)N[C@@H](C)c5ccc(-c6scnc6C)cc5)C(C)C)on4)CC3)nc3c(F)c(-c4cc(O)cc5ccccc45)c(Cl)cc23)C[C@@H]1CC#N (atropisomer, axis not shown) [Compound 121]
Reported Result: 35 to 70%
